Where do the numbers come from? From ChEMBL document CHEMBL3751730.

# Test system: A549
# PROTOCOL_DETAILS: Antiproliferative activity against human A549 cells after 72 hrs by MTT assay
# Assay type: functional, cell-based
# EXPERIMENTAL_CONDITIONS: A549, 72 h
MEASUREMENT_KIND: pIC50
# pIC50: negative log10 of molar concentration; output just the value

Please report the recorded pIC50 for COc1cccc(/C=C/C(=O)O[C@@H]2O[C@@H]3O[C@@]4(C)CC[C@H]5[C@H](C)[C@H](OC(=O)/C=C/c6cccc(OC)c6)C[C@@H]([C@H]2C)[C@@]35OO4)c1 .
6.10

What value of pIC50 has been reported for the following compound? COc1ccc(/C=C/C(=O)O[C@@H]2O[C@@H]3O[C@@]4(C)CC[C@H]5[C@H](C)[C@H](OC(=O)/C=C/c6ccc(OC)c(OC)c6)C[C@@H]([C@H]2C)[C@@]35OO4)cc1OC
6.70
